Tested on: GDP-bound KRAS protein (aa 1-169), containing both G12C and C118A amino acid substitutions (Homo sapiens (Human), UniProt P01116, C118A/G12C)
Sequence (P01116 other isoform, or with tags, fused parts or gaps G12C/C118A): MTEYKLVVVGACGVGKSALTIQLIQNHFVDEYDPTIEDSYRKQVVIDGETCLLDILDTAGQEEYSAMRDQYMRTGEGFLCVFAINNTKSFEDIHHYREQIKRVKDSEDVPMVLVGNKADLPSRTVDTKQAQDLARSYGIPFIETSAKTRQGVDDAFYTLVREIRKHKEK
Assay procedure: Coupled nucleotide exchange assay (SOS-mediated nucleotide exchange, AlphaScreen)
Type: biochemical
Assay conditions: read-out: Coupled exchange IC50 (5 min; μM); 5 min compound pre-incubation
Assignment: determine reported log10 IC50 for the given compounds.
Give log10 of IC50, with IC50 taken in µM.

Record excerpt, results attached:
Compound: C=CC(=O)N1C[C@H](C)N(c2nc(=O)n(-c3c(C)ccnc3C(C)C)c3nc(-c4ccccc4C(C)C)c(F)cc23)C[C@H]1C (atropisomer, axis not shown; (M))
log10 IC50: -1.11
--
Compound: C=CC(=O)N1C[C@H](C)N(c2nc(=O)n(-c3c(C(C)C)cnn3C(C)C)c3nc(-c4ccccc4F)c(Cl)cc23)C[C@H]1C [Example 100-1]
log10 IC50: -1.08
--
Compound: C=CC(=O)N1C[C@H](C)N(c2nc(=O)n3c4nc(c(Cl)cc24)-c2ccccc2C/C=C\Cc2ccccc2-3)C[C@H]1C (atropisomer, axis not shown; (P)) [Example 146-3]
log10 IC50: 0.85
--
Compound: C=CC(=O)N1[C@H](C)CN(c2nc(=O)n(-c3c(C)cc(N)nc3C(C)C)c3nc(-c4ccccc4F)c(F)cc23)C[C@@H]1C (single isomer, unassigned) [Example 123-3]
log10 IC50: 1.15
--
Compound: C=CC(=O)N1C[C@H](C)N(c2nc(=O)n(-c3c(Cl)ncnc3C(C)C)c3nc(-c4ccccc4F)c(Cl)cc23)C[C@H]1C (single isomer, unassigned) [Example 102-5-2]
log10 IC50: -0.76

Respectfully, I request log10 IC50 for each entry included below.
1. C=CC(=O)N1C[C@H](C)N(c2nc(=O)n(-c3c(C)ccnc3C(C)C)c3nc(-c4ccccc4NC(=O)C(F)(F)F)c(Cl)cc23)C[C@H]1C (atropisomer, axis not shown; (M))
2. C=CC(=O)N1C[C@H](C)N(c2nc(=O)n(-c3c(CN4CCCC4)ccnc3C(C)C)c3nc(-c4ccccc4C(C)C)c(Cl)cc23)C[C@H]1C
3. C=CC(=O)N1C[C@H](C)N(c2nc(=O)n(-c3c(C)ccnc3C(C)C)c3nc(-c4ccccc4Cl)c(Cl)cc23)C[C@H]1C (atropisomer, axis not shown; (M))
4. C=CC(=O)N1C[C@H](C)N(c2nc(=O)n(-c3c(C)ccnc3C(C)C)c3nc(C=C(C)C)c(Cl)cc23)C[C@H]1C (atropisomer, axis not shown; (M))
5. C=CC(=O)N1C[C@H](C)N(c2nc(=O)n(-c3c(C(C)C)nc(OCCN(C)C)nc3C(C)C)c3nc(-c4ccccc4F)c(Cl)cc23)C[C@H]1C

[-0.72, -0.71, -1.48, -0.01, -1.19]

----------
Tested on: GDP-bound KRAS protein (aa 1-169), containing both G12C and C118A amino acid substitutions (Homo sapiens (Human), UniProt P01116, C118A/G12C)
Assay procedure: Coupled nucleotide exchange assay (SOS-mediated nucleotide exchange, AlphaScreen)
Type: biochemical
Assay conditions: read-out: Coupled exchange IC50 (5 min; μM); 5 min compound pre-incubation
Measured property: IC50 (µM)
Answers are plain numbers, in µM.

Answered cases to consult:
Molecule: C=CC(=O)N1C[C@H](C)N(c2nc(=O)n(-c3c(C)cc(CN(C)C)cc3C(C)C)c3nc(-c4c(O)cccc4F)c(F)cc23)C[C@H]1C (single isomer, unassigned) [Example 80-21-2]
IC50 (µM): 0.061
--
Molecule: C=CC(=O)N1C[C@H](C)N(c2nc(=O)n(-c3c(C)ccnc3C(C)C)c3nc(-c4cc(C)ccc4F)c(Cl)cc23)C[C@H]1C (atropisomer, axis not shown; (M)) [Example 92-60]
IC50 (µM): 0.02
--
Molecule: C=CC(=O)N1C[C@H](C)N(c2nc(=O)n(-c3c(C(C)C)cnn3C(C)C)c3nc(-c4ccccc4F)c(Cl)cc23)C[C@H]1C (single isomer, unassigned) [Example 100-1-2]
IC50 (µM): 0.062
--
Molecule: C=CC(=O)N1C[C@H](C)N(c2nc(=O)n(-c3c(C(C)C)ncnc3C3CC3)c3nc(-c4ccccc4F)c(Cl)cc23)C[C@H]1C (single isomer, unassigned) [Example 108-1-1]
IC50 (µM): 0.006

Record request: IC50 value, item C=CC(=O)N1C[C@H](C)N(c2nc(=O)n3c4nc(c(Cl)cc24)-c2ccccc2C/C=C/Cc2ccccc2-3)C[C@H]1C (single isomer, unassigned) [Example 146-3-2]
4.4

----------
Tested on: GDP-bound KRAS protein (aa 1-169), containing both G12C and C118A amino acid substitutions (Homo sapiens (Human), UniProt P01116, C118A/G12C)
Assay procedure: Coupled nucleotide exchange assay (SOS-mediated nucleotide exchange, AlphaScreen)
Assay type: biochemical
Assay conditions: read-out: Coupled exchange IC50 (5 min; μM); 5 min compound pre-incubation
IC50 less than 0.07 µM is yes (1); IC50 greater than or equal to 0.07 µM is no (0).

Example entries begin here.
Compound: C=CC(=O)N1C[C@H](C)N(c2nc(=O)n(-c3c(C(C)C)nc(CN4CCCC4)nc3C(C)C)c3nc(-c4ccccc4F)c(Cl)cc23)C[C@H]1C
Assigned class: no (0)
--
Compound: C=CC(=O)N1C[C@H](C)N(c2nc(=O)n(-c3c(C(C)C)cncc3C(C)C)c3nc(-c4c(O)cccc4F)c(F)cc23)C[C@H]1C
Assigned class: no (0)
--
Compound: C=CC(=O)N1C[C@H](C)N(c2nc(=N)n(-c3ccccc3C(C)C)c3nc(-c4ccccc4F)c(Cl)cc23)C[C@H]1C
Assigned class: yes (1)

API: query returns whether the compound falls strictly under 0.07 µM in IC50. Query: C=CC(=O)N1C[C@H](C)N(c2nc(=O)n(-c3c(C)ccnc3C(C)C)c3nc(-c4ccccc4NC(=O)C(F)F)c(Cl)cc23)C[C@H]1C (atropisomer, axis not shown; (M))
no (0)

Please indicate whether the reported IC50 of C=CC(=O)N1C[C@H](C)N(c2nc(=O)n(-c3c(C)ccnc3C(C)C)c3nc(-c4cccnc4C4CC4)c(Cl)cc23)C[C@H]1C (atropisomer, axis not shown; (M)) is strictly below 0.07 µM.
no (0)

Threshold test, IC50 < 0.07 µM: C=CC(=O)N1C[C@H](C)N(c2nc(=O)n(-c3c(C)ccnc3C(C)C)c3nc(-c4ccccc4CC)c(Cl)cc23)C[C@H]1C (atropisomer, axis not shown; (M))
yes (1)

Please determine if C=CC(=O)N1C[C@H](C)N(c2nc(=O)n(-c3c(C)ccnc3C(C)C)c3nc(-c4c(C)ccc5cn[nH]c45)c(Cl)cc23)C[C@H]1C (atropisomer, axis not shown; (M)) is below 0.07 µM in terms of IC50.
no (0)

Does the reported IC50 of the following compound sit strictly below 0.07 µM? C=CC(=O)N1C[C@H](C)N(c2nc(=O)n(CC(C)(C)C)c3nc(-c4ccccc4F)c(Cl)cc23)C[C@H]1C
no (0)

Given the entry C=CC(=O)N1C[C@H](C)N(c2nc(=O)n(-c3c(C)ccnc3C(C)C)c3nc(-c4cc(F)ccc4F)c(Cl)cc23)C[C@H]1C (atropisomer, axis not shown; (M)) , would its reported IC50 be below 0.07 µM?
yes (1)

State whether 0.07 µM exceeds IC50 recorded for C=CC(=O)N1C[C@H](C)N(c2nc(=O)n(-c3c(C(C)C)ncnc3C3CC3)c3nc(-c4ccccc4F)c(Cl)cc23)C[C@H]1C (single isomer, unassigned) [Example 108-1-2] .
yes (1)

Please check: IC50 for C=CC(=O)N1C[C@H](C)N(c2nc(=O)n(-c3c(CN(C)C)cccc3C(C)C)c3nc(-c4ccccc4F)c(Cl)cc23)C[C@H]1C (single isomer, unassigned) [Example 80-14-1] , strictly under 0.07 µM or not?
no (0)

----------
Give log10 IC50 for every item shown.
Tested on: GDP-bound KRAS protein (aa 1-169), containing both G12C and C118A amino acid substitutions (Homo sapiens (Human), UniProt P01116, C118A/G12C)
Assay procedure: Coupled nucleotide exchange assay (SOS-mediated nucleotide exchange, AlphaScreen)
Assay type: biochemical
Assay conditions: read-out: Coupled exchange IC50 (5 min; μM); 5 min compound pre-incubation
Would you kindly interpret these values as log10 of IC50 expressed in µM?

Example compounds with recorded log10 IC50:
Compound: C=CC(=O)N1C[C@H](C)N(c2nc(=O)n(-c3c(C)ccnc3C(C)C)c3nc(C4CCCCC4)c(Cl)cc23)C[C@H]1C (atropisomer, axis not shown; (M)) [Example 95-1]
log10 IC50: -1.28
//
Compound: C=CC(=O)N1C[C@H](C)N(c2nc(=O)n(-c3c(C)ccnc3C(C)C)c3nc(-c4c(C)cccc4F)c(F)cc23)C[C@H]1C (atropisomer, axis not shown; (M)) [Example 94-10]
log10 IC50: -0.86
//
Compound: C=CC(=O)N1C[C@H](C)N(c2nc(=O)n(-c3c(C)ccnc3C(C)C)c3nc(-c4sccc4C)c(Cl)cc23)C[C@H]1C (atropisomer, axis not shown; (M)) [Example 93-1]
log10 IC50: -1.26
//
Compound: C=CC(=O)N1C[C@H](C)N(c2nc(=O)n(-c3c(N(CC)CC)ccnc3C(C)C)c3nc(-c4ccccc4C)c(Cl)cc23)C[C@H]1C [Example 103-6]
log10 IC50: -1.10
//
Compound: C#Cc1cccc(-c2nc3c(cc2Cl)c(N2C[C@@H](C)N(C(=O)C=C)C[C@@H]2C)nc(=O)n3-c2c(C)ccnc2C(C)C)c1 (atropisomer, axis not shown; (M)) [Example 92-48]
log10 IC50: -0.61

Hi team, please reply with log10 IC50 for each item in this list.
1. C=CC(=O)N1C[C@H](C)N(c2nc(=O)n(-c3c(CC)ncnc3C(C)C)c3nc(-c4ccccc4C)c(Cl)cc23)C[C@H]1C (single isomer, unassigned) [Example 109-2-2]
2. C=CC(=O)N1CCN(c2nc(=O)n(CC(C)(C)OC)c3nc(-c4ccccc4F)c(Cl)cc23)CC1 [Example 106-5]
3. C=CC(=O)N1CCN(c2nc(=O)n(CC(C)(C)C)c3nc(-c4ccccc4F)c(Cl)cc23)[C@@H](C)C1 [Example 106-2]
4. C=CC(=O)N1C[C@H](C)N(c2nc(=O)n(-c3c(C(C)C)nc(NCCN(C)C)nc3C(C)C)c3nc(-c4ccccc4F)c(Cl)cc23)C[C@H]1C [Example 107-4]

[-0.65, 0.79, 0.00, -1.29]

Provide reported log10 IC50 for each item, in the same order as listed.
1. C=CC(=O)N1C[C@H](C)N(c2nc(=O)n(-c3c(CN(CC)C(C)C)ccnc3C(C)C)c3nc(-c4ccccc4C(C)C)c(Cl)cc23)C[C@H]1C [Example 141-2]
2. C=CC(=O)N1C[C@H](C)N(c2nc(=O)n(-c3c(C)ccnc3C(C)C)c3[nH]c(=O)c(Cl)cc23)C[C@H]1C (atropisomer, axis not shown; (M)) [Example 92-22]

1. -0.55
2. 0.47

Source: patent US11285156B2
